Could you please report measured pKd for the items listed next?
target: UniProtKB C3TRK2; assay: DnaK beta-domain binding affinity, SAR follow-up, orthogonal assay for DnaK modulator project, biophysical, isothermal titration calorimetry, full-length DnaK (AID 1495); details: purified DnaK, measured here: Kd to DnaK substrate-binding domain
Numbers only, as −log10 of the molar value.

CC(Cc1ccc(F)cc1)NC(=O)c1cccs1 (centres undefined) : 4.86
O=C(NCc1ccccc1F)c1cccs1 : 4.19
O=C(Nc1ncc2ccccc2n1)c1cccs1 : 5.82
O=C(NCc1cccc2ccccc12)c1cccs1 : 6.00
O=C(Nc1ccc2[nH]ccc2c1)c1cccs1 : 5.31
Cc1ccc(C(=O)NCc2ccc(F)cc2)o1 : 4.32

State recorded pKd for all listed compounds.
1. O=C(NCc1ccccc1Br)c1cccs1
2. Cc1ccc(C(=O)NCc2ccc(Cl)cc2)o1
3. Cc1ccc(CNC(=O)c2ccc([N+](=O)[O-])o2)cc1

1. 4.84
2. 4.71
3. 4.60
